target: gp120 of viral strain p246F10 (HIV, strain p246F10); assay: cell-based or functional assay
*1 amine or outer side, *2 acyl side, *3 side chain or, on linkers, in order; H or OH if unused. [ ]: non-standard residue; d: D form. U1 = 4-cyclohexylmethoxy-L-phenylalanine, O=C([C@H](Cc1ccc(OCC2CCCCC2)cc1)N[*:1])[*:2]; Bip = N[C@@H](Cc1ccc(-c2ccccc2)cc1)C(=O)O; Tpa = thiopropionic acid
Hi! Just check whether EC50 (antiviral activity, TZM-bl cells, luciferase) is below 500 nM. Below gives met, equal or above gives not met.

{"binder": "mCD4.1-PS1 (N-terminal gamma-aminobutyric acid (gammaAbu) acylated with 3-thiopropionyl (from SATP); all six Tyr are sulfotyrosine (YSO3); N-terminal Tpa (thiopropionic acid); Bip at position 23; C-terminal …; Lys5 N-epsilon carries the PEO2-maleimide linker bound to the thiol of the PS1 chain) peptide 1: NLHKCQLRCSSLGLLGRCAGSFCACV peptide 2: SYDYSYDYSYDYS", "assigned_category": "not met"}
{"binder": "Tpa-NLHKCQLRCSSLGLLGRCA[dP]T[U1]CACV-NH2 (disulfide (positions not given here)) [mCD4.2]", "assigned_category": "not met"}
{"binder": "mCD4.2-PS1 (not fully specified; N-terminal gamma-aminobutyric acid (gammaAbu) acylated with 3-thiopropionyl (from SATP); all six Tyr are sulfotyrosine (YSO3); N-terminal Tpa; D-proline at position 21; U1 (4-cyclohexylmethoxy-L-phenylalanine) at position 23; C-terminal amide; Lys5 N-epsilon carries the PEO2-maleimide linker bound to the thiol of the PS1 chain) peptide 1: NLHKCQLRCSSLGLLGRCAPTFCACV peptide 2: SYDYSYDYSYDYS", "assigned_category": "met"}
{"binder": "mCD4.3-PS1 (not fully specified; N-terminal gamma-aminobutyric acid (gammaAbu) acylated with 3-thiopropionyl (from SATP); all six Tyr are sulfotyrosine (YSO3); N-terminal Tpa; D-proline at position 21; U1 (4-cyclohexylmethoxy-L-phenylalanine) at position 23; C-terminal amide; Lys5 N-epsilon carries the PEO2-maleimide linker bound to the thiol of the PS1 chain) peptide 1: NLHKCQLRCRSLGLLGRCAPTFCACV peptide 2: SYDYSYDYSYDYS", "assigned_category": "met"}
{"binder": "Tpa-NLHKCQLRCSSLGLLGRCAGS[Bip]CACV-NH2 (disulfide (positions not given here); also: three disulphide bridges, pairing not given here) [mCD4.1]", "assigned_category": "not met"}
